ASSAYED SYSTEM: recombinant human 17β-hydroxysteroid dehydrogenase type 1 (Homo sapiens, UniProt P14061)
Construct: made in house; host or cells: Sf9 insect cells (baculovirus, Bac to Bac Expression System)
Sequence (P14061 1-328): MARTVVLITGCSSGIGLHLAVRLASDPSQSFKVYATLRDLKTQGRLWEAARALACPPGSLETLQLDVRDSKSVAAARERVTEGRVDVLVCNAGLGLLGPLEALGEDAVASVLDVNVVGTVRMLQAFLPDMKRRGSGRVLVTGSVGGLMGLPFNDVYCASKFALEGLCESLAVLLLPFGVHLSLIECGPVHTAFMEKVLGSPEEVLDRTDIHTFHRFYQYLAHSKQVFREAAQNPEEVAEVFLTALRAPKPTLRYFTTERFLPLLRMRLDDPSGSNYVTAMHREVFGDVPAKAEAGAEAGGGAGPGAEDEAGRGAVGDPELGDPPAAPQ
PROTOCOL NOTES: Inhibition of recombinant human 17β-hydroxysteroid dehydrogenase type 1 (conversion of 3H-estrone to estradiol, HPLC)
Type: biochemical
CONDITIONS USED: inhibitor 100 nM; 30 nM 3H-estrone, 1 mM NADPH, 30 min at RT; read-out: Inhibition of rec. 17β-HSD1 (% inhibition), 100 nM
Method: 1. Inhibition of the 17β-hydroxysteroid Dehydrogenase Type 1 Enzyme 17β-HSD1 Purification: Recombinant baculovirus was generated by the “Bac to Bac Expression System” (Invitrogen). […] Recombinant protein (0.1 μg/ml) was incubated in 20 mM KH2PO4 pH 7.4 with 30 nM 3H-estrone and 1 mM NADPH for 30 min at RT, in the presence of potential inhibitors at concentrations of 1 μM or 0.1 μM. […] Radioactivity was monitored in the eluate by a Packard Flow Scintillation Analyzer. […]
The class of a record is decided solely by its measured inhibition at 0.1 µM; consult low bracket (below 30%), middle bracket (30% to below 50%), high bracket (50% or more)

Reference set, count: 6
- COc1ccc2c(c1)CC[C@H]1[C@@H]3[C@H](CCCCCC(=O)NCc4ccco4)CC(=O)[C@@]3(C)CC[C@H]21: low bracket
- CN(C[C@H]1CC(=O)[C@@]2(C)CC[C@@H]3c4ccc(O)cc4CC[C@H]3[C@H]12)S(=O)(=O)c1ccc(F)cc1: middle bracket
- COc1ccc2c(c1)CC[C@H]1[C@@H]3[C@H](CCCCNC(=O)Nc4ccc(OC)c(OC)c4)CC(=O)[C@@]3(C)CC[C@H]21: high bracket
- CCOC(=O)CNNC(=O)CCCCC[C@@H]1CC(=O)[C@@]2(C)CC[C@@H]3c4ccc(OC)cc4CC[C@H]3[C@H]12: middle bracket
- C[C@]12CC[C@@H]3c4ccc(O)cc4CC[C@H]3[C@@H]1[C@H](CCCC(=O)NCc1ccccc1)CC2=O: high bracket
- COc1ccc2c(c1)CC[C@H]1[C@@H]3[C@H](CCCOC(=O)Nc4ccc(Cl)cc4Cl)CC(=O)[C@@]3(C)CC[C@H]21: middle bracket

query: Tag the class for CCOC(=O)Cc1csc(NC(=O)CC[C@@H]2CC(=O)[C@@]3(C)CC[C@@H]4c5ccc(OC)cc5CC[C@H]4[C@H]23)n1
result: middle bracket

query: Tag the class for COc1ccc2c(c1)CC[C@H]1[C@@H]3[C@H](CCCNC(=O)NCc4ccccc4)CC(=O)[C@@]3(C)CC[C@H]21
result: middle bracket

query: Tag the class for COc1ccc(S(=O)(=O)NC[C@H]2CC(=O)[C@@]3(C)CC[C@@H]4c5ccc(O)cc5CC[C@H]4[C@H]23)cc1
result: high bracket

query: Tag the class for COc1ccc2c(c1)CC[C@H]1[C@@H]3[C@H](CCCCC(=O)NCc4ccc(Cl)cc4)CC(=O)[C@@]3(C)CC[C@H]21
result: middle bracket

query: Tag the class for COc1ccc2c(c1)CC[C@H]1[C@@H]3[C@H](CCC(=O)NC4CCCCC4)CC(=O)[C@@]3(C)CC[C@H]21
result: high bracket

###

ASSAYED SYSTEM: recombinant human 17β-hydroxysteroid dehydrogenase type 1 (Homo sapiens, UniProt P14061)
Construct: made in house; host or cells: Sf9 insect cells (baculovirus, Bac to Bac Expression System)
PROTOCOL NOTES: Inhibition of recombinant human 17β-hydroxysteroid dehydrogenase type 1 (conversion of 3H-estrone to estradiol, HPLC)
Type: biochemical
CONDITIONS USED: inhibitor 100 nM; 30 nM 3H-estrone, 1 mM NADPH, 30 min at RT; read-out: Inhibition of rec. 17β-HSD1 (% inhibition), 100 nM
Procedure: 1. Inhibition of the 17β-hydroxysteroid Dehydrogenase Type 1 Enzyme 17β-HSD1 Purification: Recombinant baculovirus was generated by the “Bac to Bac Expression System” (Invitrogen). […] Recombinant protein (0.1 μg/ml) was incubated in 20 mM KH2PO4 pH 7.4 with 30 nM 3H-estrone and 1 mM NADPH for 30 min at RT, in the presence of potential inhibitors at concentrations of 1 μM or 0.1 μM. […] Radioactivity was monitored in the eluate by a Packard Flow Scintillation Analyzer. […]
ASSAY ENDPOINT: inhibition at 0.1 µM (%)
The figure you give is taken to be in %; do not add the unit.

Some solved cases for reference:
• COc1ccc2c(c1)CC[C@H]1[C@@H]3[C@H](CCCCCC(=O)NC4CCCCC4)CC(=O)[C@@]3(C)CC[C@H]21 = 30.5
• COc1ccc2c(c1)CC[C@H]1[C@@H]3[C@H](CCCCC(=O)NCc4ccncc4)CC(=O)[C@@]3(C)CC[C@H]21 = 25.9
• COc1ccc2c(c1)CC[C@H]1[C@@H]3[C@H](CCCOC(=O)Nc4ccc5c(c4)OCO5)CC(=O)[C@@]3(C)CC[C@H]21 = 48.7
• COc1ccc2c(c1)CC[C@H]1[C@@H]3[C@H](CCC(=O)NCc4ccc5c(c4)OCO5)CC(=O)[C@@]3(C)CC[C@H]21 = 29

query: Write down inhibition at 0.1 µM measured for item C[C@]12CC[C@@H]3c4ccc(O)cc4CC[C@H]3[C@@H]1[C@@H](CNS(=O)(=O)c1ccc3ccccc3c1)CC2=O
result: 40.1

query: Write down inhibition at 0.1 µM measured for item COc1ccc2c(c1)CC[C@H]1[C@@H]3[C@H](CCC(=O)NCCc4cccs4)CC(=O)[C@@]3(C)CC[C@H]21
result: 28.7

###

ASSAYED SYSTEM: recombinant human 17β-hydroxysteroid dehydrogenase type 1 (Homo sapiens)
Construct: made in house; host or cells: Sf9 insect cells (baculovirus, Bac to Bac Expression System)
Sequence (P14061 1-328): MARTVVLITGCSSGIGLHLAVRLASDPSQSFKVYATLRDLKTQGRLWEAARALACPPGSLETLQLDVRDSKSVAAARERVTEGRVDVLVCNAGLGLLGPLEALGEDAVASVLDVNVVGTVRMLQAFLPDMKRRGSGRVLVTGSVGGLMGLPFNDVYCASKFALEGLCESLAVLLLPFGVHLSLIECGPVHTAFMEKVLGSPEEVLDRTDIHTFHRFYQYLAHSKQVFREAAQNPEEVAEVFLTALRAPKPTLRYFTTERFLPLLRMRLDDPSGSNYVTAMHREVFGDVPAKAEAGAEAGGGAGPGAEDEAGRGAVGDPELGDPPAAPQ
PROTOCOL NOTES: Inhibition of recombinant human 17β-hydroxysteroid dehydrogenase type 1 (conversion of 3H-estrone to estradiol, HPLC)
Format: biochemical
CONDITIONS USED: inhibitor 1 μm; 30 nM 3H-estrone, 1 mM NADPH, 30 min at RT; read-out: Inhibition of rec. 17β-HSD1 (% inhibition), 1 μm
Output rule met for inhibition at 1 µM not less than 80%; output rule not met otherwise.

* C[C@]12CC[C@@H]3c4ccc(O)cc4CC[C@H]3[C@@H]1[C@H](CCCO)CC2=O [Example 823] | rule met

Lab note: next molecule to report on.
query: Entry COc1ccc2c(c1)CC[C@H]1[C@@H]3[C@H](CCCCC(=O)NCc4cccnc4)CC(=O)[C@@]3(C)CC[C@H]21 [Example 338] : is its inhibition at 1 µM no less than 80%?
result: rule met

###

Reported inhibition at 0.1 µM by item:
ASSAYED SYSTEM: recombinant human 17β-hydroxysteroid dehydrogenase type 1 (Homo sapiens, UniProt P14061)
Construct: made in house; host or cells: Sf9 insect cells (baculovirus, Bac to Bac Expression System)
PROTOCOL NOTES: Inhibition of recombinant human 17β-hydroxysteroid dehydrogenase type 1 (conversion of 3H-estrone to estradiol, HPLC)
Assay type: biochemical
CONDITIONS USED: inhibitor 100 nM; 30 nM 3H-estrone, 1 mM NADPH, 30 min at RT; read-out: Inhibition of rec. 17β-HSD1 (% inhibition), 100 nM
The figure you give is taken to be in %; do not add the unit.

* COc1ccc2c(c1)CC[C@H]1[C@@H]3[C@H](CCC(=O)Nc4ncc(C)s4)CC(=O)[C@@]3(C)CC[C@H]21 | 78.9
* COc1ccc2c(c1)CC[C@H]1[C@@H]3[C@H](CCCCCC(=O)NCc4cccc(F)c4)CC(=O)[C@@]3(C)CC[C@H]21 | 35.8
* COc1ccc2c(c1)CC[C@H]1[C@@H]3[C@H](CCCCCC(=O)NCc4ccc5c(c4)OCO5)CC(=O)[C@@]3(C)CC[C@H]21 | 46.3
* COc1ccc2c(c1)CCC1C2CC[C@]2(C)C(=O)C[C@H](C(=O)N(C)Cc3cccc4ccccc34)C12 (stereo partly drawn) | 25.6
* COc1ccc2c(c1)CC[C@H]1[C@@H]3[C@H](CCC(=O)NCc4cccc(F)c4)CC(=O)[C@@]3(C)CC[C@H]21 | 45.7

Proceed to the following item.
query: Write down inhibition at 0.1 µM measured for item COc1cccc(NC(=O)NCCC[C@@H]2CC(=O)[C@@]3(C)CC[C@@H]4c5ccc(OC)cc5CC[C@H]4[C@H]23)c1
result: 39.8
